Origin of the recorded values: ChEMBL document CHEMBL1156829

Below: a set of entries, each annotated with reported CC50.
Experiment: NOVARTIS: Cytotoxicity against human hepatocellular carcinoma cell line (Huh7)
Format: toxicity, cell-based, Huh-7
Conditions: Huh7 cells (hepatocellular carcinoma cell line)
Reported endpoint: CC50

O=C(NC1CC1)c1ccc(CSCc2ccccc2Cl)o1; > 100 µM
Cc1ccc(N=Nc2nc3ccccc3n2C)c(C)c1; 3.6 µM
CCOC(=O)C1=C(C)N(c2ccc(OCC)cc2)C(=O)/C1=C\c1ccc(C(C)C)cc1; > 10 µM
COc1cc(OC)c(N(C)C(=O)c2cc3c(s2)-c2ccccc2S(=O)(=O)C3)cc1Cl; > 55.6 µM
Nc1cc2c(cc1Br)CCCC2; > 10 µM
COc1ccc(-n2nc(C(=O)NCC(=O)NCCCN3CC(C)CC(C)C3)c3ccccc3c2=O)cc1Cl (stereo unspecified); 76.4 µM
Brc1ccc(C=Cc2cc[n+](Cc3ccccc3)cc2)cc1; 47.3 µM
COc1ccc(-c2csc3ncnc(Cl)c23)cc1OC; > 100 µM
CC(C)NC(=O)c1cc(NC(=O)c2cccs2)ccc1N1CCc2ccccc2C1; 16.3 µM
COc1ccc(/C=C/C(=O)NC(=O)c2ccccc2O)cc1OC; > 10 µM
O=C(Nc1ccc(F)cc1)N1CCN(c2ccc3nnc(-c4ccccc4)n3n2)CC1; > 100 µM

###

Experiment: NOVARTIS: Cytotoxicity against human hepatocellular carcinoma cell line (Huh7)
Type: toxicity, cell-based, Huh-7
Details: Huh7 cells (hepatocellular carcinoma cell line)
Below: a set of entries, each annotated with reported CC50.
Reported endpoint: CC50

CC(NC(=O)Cc1ccc(F)cc1)C(c1cccs1)N1CCOCC1 (stereo not given); > 10 µM
CCOc1ccc(-c2c[n+](-c3ccccc3)c3n2CCS3)cc1; > 100 µM
COc1ccc(-c2noc(CNC(=O)c3cccc(I)c3)n2)cc1; > 100 µM
COc1ccc2nc(C)cc(Nc3ccc(Oc4ccc(Cl)cc4)c(Cl)c3)c2c1; 9.34 µM
CCOC(=O)C1=C(C)NC2=C(C(=O)CC(c3ccc(OC)c(OC)c3)C2)C1c1ccccc1Br (stereo not given); > 100 µM
C/C(=C\c1csc(C)n1)[C@@H]1C[C@@H]2O[C@@H]2CCC[C@H](C)C(O)[C@@H](C)C(=O)C(C)(C)[C@@H](O)CC(=O)O1 (stereo not given in full); > 10 µM
Cc1ccc(NC(=O)CCCCC(=O)Nc2ccc(C)c(Br)c2)cc1Br; > 10 µM
C=C[C@H]1CN2CC[C@H]1C[C@H]2[C@H](OC(=O)c1cccc([N+](=O)[O-])c1)c1ccnc2ccccc12; > 10 µM
Cc1ccc(C2CC(=O)N3CN(c4ccc(Br)cc4)CSC3=C2C#N)o1 (stereo not given); > 100 µM
FC(F)(F)c1cccc(Nc2nnnc3ccccc23)c1; > 10 µM
CCOC(=O)c1ccc(Nc2nc(N)c3cc(OC)c(OC)cc3n2)cc1; > 100 µM
COc1ccccc1N1C(=N)SC(=Cc2ccc(OCc3ccccc3F)cc2)C1=O; > 100 µM
Nc1nc(N)c2c(OCc3ccc(C(F)(F)F)cc3)cccc2n1; > 10 µM
OCC(O)COc1cccc2ccccc12 (stereo not given); > 11.2 µM
Cc1ccc2c(c1)N(CC(=O)NC1CCCCC1C)C(=O)CO2 (stereo not given); > 10 µM
COc1ccc(-n2nc(C(=O)NCC(=O)Nc3nc4ccccc4s3)c3ccccc3c2=O)cc1Cl; > 10 µM
C/C=C/C(C(=O)NCCCC)N1C(=O)c2cc(NC(C)=O)ccc2NC(=O)[C@@H]1CCC(=O)O (stereo not given in full); 0.442 µM
O=C1NC(=S)NC1=Cc1ccc(C(F)(F)F)cc1; > 100 µM
CCOc1cccc(Nc2c3c(nc4ncnn24)CCC3)c1; > 100 µM
COc1cc(Br)c(CCNC(=O)Cc2cc(OC)c(OC)cc2Br)cc1OC; > 100 µM
OC(CNc1cccc2ccccc12)Cn1c2ccc(Cl)cc2c2cc(Cl)ccc21 (stereo not given); 54.2 µM
CCC(C)NC(=O)c1nn(-c2cccc(OC)c2)c(=O)c2ccccc12 (stereo not given); > 100 µM
O=C(COC(=O)c1ccc2c(c1)C(=O)N(c1ccc3ccccc3c1)C2=O)c1ccc(Br)cc1; > 10 µM
O=C(c1ccc([N+](=O)[O-])cc1)C1C(C(=O)c2ccc(F)cc2)C2(C(=O)Nc3ccccc32)C2C=Cc3ccccc3N12 (stereo not given); > 10 µM
CCCCN(CCCC)S(=O)(=O)c1ccc(NC(=O)c2ccco2)cc1; > 65.7 µM
COc1ccc(C(=O)NCCc2ccc(C)cc2)cc1OC1CCN(C(C)=O)CC1; > 100 µM
CCCCCc1ccc(C(=O)Oc2ccccc2-c2nc3cc(C)ccn3c2NC(C)(C)CC(C)(C)C)cc1; > 10 µM
CCn1cc(C(=O)NCCC2=CCCCC2)c(=O)c2cc(S(=O)(=O)N(C)C)ccc21; > 10 µM
Nc1ccc2nc(-c3cccc(-c4nc5ccc(N)cc5s4)c3)sc2c1; > 100 µM
CC(=O)NCCc1nc2ccccc2n1Cc1ccc(C(C)C)cc1; 48.7 µM
CCOC(=O)c1cnc2c(C)c3[nH]c(C)c(C)c3cc2c1O; > 10 µM
O=C(Nc1ccc(NC(=O)Nc2ccc(C3=NCCN3)cc2)cc1)Nc1ccc(C2=NCCN2)cc1; > 10 µM
O=c1c(-c2ccc(Cl)cc2Cl)c(C(F)(F)F)oc2c(CN3CCCCC3)c(O)ccc12; > 100 µM
Cc1cccc(N(C)c2ccnc3c(-c4cccc(C(N)=O)c4)cnn23)c1; > 10 µM
CCOc1ccccc1C(=O)NC(Nc1sc2c(c1C(N)=O)CCCC2)(C(F)(F)F)C(F)(F)F; > 100 µM
Cc1cccn2c(=O)c3cc(C(=O)NCc4ccco4)c(=N)n(CCc4ccccc4)c3nc12; > 100 µM
COc1cccc(/C=C2\SC(=Nc3ccccc3)NC2=O)c1OC; > 100 µM
C=CCOC(=O)C1=C(C)N2CCSC2=C(C#N)C1c1ccco1 (stereo not given); > 10 µM
Cc1ccc(C)c(CN2C(=O)c3ccccc3S(=O)(=O)c3ccc(C(=O)NCCCN4CCCC(C)C4)cc32)c1 (stereo not given); 12 µM
O=C(CCC1CCCC1)NC1CCC(Nc2ccnc3cc(Cl)ccc23)CC1 (stereo not given); > 3.89 µM

###

Assay: NOVARTIS: Cytotoxicity against human hepatocellular carcinoma cell line (Huh7)
Type: toxicity, cell-based, Huh-7
Conditions: Huh7 cells (hepatocellular carcinoma cell line)
Below: a set of entries, each annotated with reported CC50.
Reported endpoint: CC50

OC1(c2ccc(Br)cc2)CCN(C2CCN(CCc3ccccc3)CC2)CC1; 4.77 µM
COc1ccc(-c2c[n+](CC(=O)c3ccc(Cl)cc3)c3n2CCC3)cc1; > 100 µM
Cc1cc(Nc2ccc(C)c(C)c2)n2cnnc2n1; > 73.9 µM
COc1ccc(S(=O)(=O)N2CCC(c3nnc(-c4ccccc4OC)o3)CC2)cc1; > 100 µM
CC(C)N1CCc2c(sc(NC(=O)C(C)(C)C)c2C(N)=O)C1; 71.2 µM
C[C@@H]1CC[C@H]2[C@@H](C)C(=O)O[C@@H]3O[C@@]4(C)CC[C@@H]1[C@]32OO4; > 10 µM
N#Cc1c(-c2ccccc2)cc(N2CCN(C3CCCCC3)CC2)n2c1nc1ccccc12; > 100 µM
COc1ccc(C2CC(=O)C3=C(C2)NC(C)=C(C(=O)OC(C)C)C3c2cccc(Cl)c2)cc1OC (stereo not given); 16.1 µM
NC(=NCc1ccccc1)NC(=O)c1nc(Cl)c(N)nc1N; > 6.25 µM
Nc1nonc1-n1nnc(C(=O)NN=Cc2cccc(Cl)c2)c1-c1ccccc1; > 100 µM

###

Experiment: NOVARTIS: Cytotoxicity against human hepatocellular carcinoma cell line (Huh7)
Assay type: toxicity, cell-based, Huh-7
Conditions: Huh7 cells (hepatocellular carcinoma cell line)
Below: a set of entries, each annotated with reported CC50.
Reported endpoint: CC50

CC(OC(=O)c1ccccc1N1C(=O)C2C3C=CC(C4CC34)C2C1=O)C(=O)c1ccccc1 (stereo not given); > 100 µM
N#Cc1cc(C#N)c(N2CCN(c3cccc(Cl)n3)CC2)nc1N; > 10 µM
O=C(C1CC1)n1cc(C(=O)C(F)(F)F)c2ccccc21; > 10 µM
CCCCOc1ccc(C2C3CCCC=C3C(C#N)=C(N)C2(C#N)C#N)cc1 (stereo not given); 57.7 µM
Cc1sc2nc3c4ccccc4c(NCCCN(C)C)nn3c(=O)c2c1C; 60 µM
Cc1c2ccccc2c(C)c2ccccc12; 21.6 µM
Cc1ccc(OCCCCN2CCOCC2)c([N+](=O)[O-])c1; > 10 µM
CCOC(=O)c1c(N)n(-c2ccc(NC(=O)c3cccc([N+](=O)[O-])c3)cc2)c2nc3ccccc3nc12; 19.4 µM
COc1ccc(CCNC(=O)CC(=O)NN=Cc2ccc(Br)cc2)cc1OC; > 10 µM
CCOC(=O)C1=C(C)NC2=C(C(=O)CC(c3ccc(OC)c(OC)c3)C2)C1c1ccc(Cl)c(Cl)c1 (stereo not given); > 100 µM
